- Target Or Test System: β-catenin/Tcf protein-protein interaction (Homo sapiens, UniProt P35222)
- Construct: Wild-type β-catenin (residues 138-781) were cloned into a pET-28b vector; 6×histidine (C); made in house; host or cells: E. coli BL21 DE3
- Assay Explanation: FP competitive inhibition assay
- Assay type: binding
- Study Conditions: Assay 1, mean ± SD (n = 3), read-out: Ki ± SD, Assay 1
pKi: −log10 of the molar value.
Test Readout: pKi

P = Cc1ccc(CCc2c(-c3cccnc3)n(CCc3nn[nH]n3)c3ccc(C(=O)O)cc23)cc1 [Compound 82]
Q = Cc1ccc(CCc2c(CCc3nc4ccccc4[nH]3)n(CCC(=O)O)c3ccc(C(=O)O)cc23)cc1 [Compound 42]
## Input Return label of the item with the larger pKi. Candidates: P , Q . Kindly state the label of the option you pick.
## Output P

P = COCCOc1ccc2sc(CCc3c(CCc4ccc(Cl)cc4)c4cc(C(=O)O)ccc4n3CCc3nn[nH]n3)nc2c1 [Compound 32]
Q = COc1ccc2sc(CCc3c(CCc4ccc(Cl)cc4)c4cc(C(=O)NCc5csc(C)n5)ccc4n3CCc3nn[nH]n3)nc2c1 [Compound 60]
## Input Return label of the item with the larger pKi. Candidates: P , Q . Kindly state the label of the option you pick.
## Output Q

1 = Cc1ccc(CCc2c(-c3ccsc3)n(CCc3nn[nH]n3)c3ccc(C(=O)NOC4CCCCO4)cc23)cc1 (stereo not shown) [Compound 92]
2 = O=C(O)c1cccc(CCc2nn[nH]n2)c1 [Compound 1]
## Input Lowest pKi? choose 1 or 2 Kindly state the label of the option you pick.
## Output 2
(2: 3.00, 1: 5.00)

###

- Target Or Test System: β-catenin/Tcf protein-protein interaction (Homo sapiens)
- Construct: Wild-type β-catenin (residues 138-781) were cloned into a pET-28b vector; 6×histidine (C); made in house; host or cells: E. coli BL21 DE3
- Sequence (P35222 138-781): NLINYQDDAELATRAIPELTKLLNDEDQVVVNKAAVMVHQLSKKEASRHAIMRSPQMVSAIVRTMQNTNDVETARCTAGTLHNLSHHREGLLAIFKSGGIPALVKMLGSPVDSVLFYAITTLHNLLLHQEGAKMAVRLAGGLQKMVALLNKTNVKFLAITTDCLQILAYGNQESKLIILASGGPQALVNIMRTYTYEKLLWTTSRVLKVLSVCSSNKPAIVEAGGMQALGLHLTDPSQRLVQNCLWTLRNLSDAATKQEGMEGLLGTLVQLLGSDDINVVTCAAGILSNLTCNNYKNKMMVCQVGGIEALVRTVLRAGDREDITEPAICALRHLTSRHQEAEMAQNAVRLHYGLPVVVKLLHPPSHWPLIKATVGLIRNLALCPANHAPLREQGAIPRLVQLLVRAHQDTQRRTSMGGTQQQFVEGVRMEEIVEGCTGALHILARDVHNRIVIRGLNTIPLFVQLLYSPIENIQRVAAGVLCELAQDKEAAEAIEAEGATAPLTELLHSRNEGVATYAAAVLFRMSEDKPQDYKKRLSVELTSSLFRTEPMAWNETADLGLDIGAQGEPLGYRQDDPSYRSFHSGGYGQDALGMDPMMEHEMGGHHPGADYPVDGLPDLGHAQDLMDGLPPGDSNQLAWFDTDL
- Assay Explanation: FP competitive inhibition assay
- Format: binding
- Study Conditions: Assay 1, mean ± SD (n = 3), read-out: Ki ± SD, Assay 1
pKi: −log10 of the molar value.
Test Readout: pKi

The following compounds have reported results that may help.
# Compound, Target Or Test System, pKi
records = [
    ("O=C(O)c1ccc2c(c1)c(CCC1CCOCC1)cn2CCc1nn[nH]n1", "β-catenin/Tcf protein-protein interaction (Homo sapiens)", 5.18),
    ("O=C(O)c1ccc2c(c1)c(CCc1cccc(Cl)c1)cn2CCc1nn[nH]n1", "β-catenin/Tcf protein-protein interaction (Homo sapiens)", 4.57),
    ("Cc1ccc(CCc2c(-c3cccs3)n(CCc3nn[nH]n3)c3ccc(C(=O)O)cc23)cc1", "β-catenin/Tcf protein-protein interaction (Homo sapiens)", 5.80),
    ("COc1ccc2nc(C#Cc3c(CCc4ccc(C)cc4)c4cc(C(=O)O)ccc4n3CCc3nn[nH]n3)sc2c1", "β-catenin/Tcf protein-protein interaction (Homo sapiens)", 6.00),
    ("Cc1ccc(CCc2c(-c3cn[nH]c3)n(CCc3nn[nH]n3)c3ccc(C(=O)NCc4ccon4)cc23)cc1", "β-catenin/Tcf protein-protein interaction (Homo sapiens)", 4.77),
]

A = Cc1ccc(CCc2cn(CCC(=O)O)c3ccc(C(=O)O)cc23)cc1
B = COc1ccc2sc(CCc3c(CCc4ccc(Cl)cc4)c4cc(C(=O)NCC(O)CO)ccc4n3CCc3nn[nH]n3)nc2c1 (centres unmarked)
## Input Lowest pKi? choose A or B Kindly state the label of the option you pick.
## Output A

###

- Tested on: HCT116 cells
- Assay Explanation: MTS cell viability assay, HCT116
- Format: cell-based
- Study Conditions: Homo sapiens, HCT-116; 72 h; mean ± SD (n = 3); Table 5; read-out: MTS cell viability IC50, Wnt hyperactive cancer cells HCT116
pIC50: −log10 of the molar value.
Test Readout: pIC50

The following compounds have reported results that may help.
# Compound, pIC50
records = [
    ("COc1ccc2sc(CCc3c(CCc4ccc(Cl)cc4)c4cc(C(=O)NCc5ccccc5N(C)C)ccc4n3CCc3nn[nH]n3)nc2c1 [Compound 54]", 4.96),
    ("COc1ccc2sc(CCc3c(CCc4ccc(Cl)cc4)c4cc(C(=O)NCc5cnccn5)ccc4n3CCc3nn[nH]n3)nc2c1 [Compound 58]", 4.92),
    ("Cc1ccc(CCc2c(-c3ccsc3)n(CCc3nn[nH]n3)c3ccc(C(=O)NCc4ccon4)cc23)cc1 [Compound 93]", 4.36),
    ("COc1ccc2sc(CCc3c(CCc4ccc(Cl)cc4)c4cc(C(=O)NCc5csc(C)n5)ccc4n3CCc3nn[nH]n3)nc2c1 [Compound 60]", 4.74),
    ("COc1ccc2sc(CCc3c(CCc4ccc(Cl)cc4)c4cc(C(=O)NCc5ccccn5)ccc4n3CCc3nn[nH]n3)nc2c1 [Compound 55]", 4.70),
]

A = COc1ccc2sc(CCc3c(CCc4ccc(Cl)cc4)c4cc(C(=O)NCc5ccncn5)ccc4n3CCc3nn[nH]n3)nc2c1 [Compound 57]
B = Cc1ccc(CCc2c(-c3csc(C(F)F)c3)n(CCc3nn[nH]n3)c3ccc(C(=O)NCc4ccon4)cc23)cc1 [Compound 94]
## Input Return label of the item with the larger pIC50. Candidates: A , B . Kindly state the label of the option you pick.
## Output A

###

- Target Or Test System: β-catenin/Tcf protein-protein interaction (Homo sapiens)
- Construct: Wild-type β-catenin (residues 138-781) were cloned into a pET-28b vector; 6×histidine (C); made in house; host or cells: E. coli BL21 DE3
- Assay Explanation: FP competitive inhibition assay
- Type: binding
- Study Conditions: Assay 4, mean ± SD (n = 3), read-out: Ki ± SD, Assay 4
Test Readout: Ki (nM)

The following compounds have reported results that may help.
# Molecule, Ki, nM
records = [
    ("COc1ccc2sc(CCc3c(CCc4ccc(Cl)cc4)c4cc(C(=O)O)ccc4n3CCc3nn[nH]n3)nc2c1", 1600),
    ("Cc1ccc(CCc2c(-c3ccsc3)n(CCc3nn[nH]n3)c3ccc(C(=O)O)cc23)cc1", 360),
]

P = COc1ccc2sc(C#Cc3c(CCc4ccc(Cl)cc4)c4cc(C(=O)O)ccc4n3CCc3nn[nH]n3)nc2c1
Q = O=C(O)c1ccc2c(c1)c(CCC1CCOCC1)cn2CCc1nn[nH]n1
R = O=C(NCc1ccc(F)cc1)c1ccc2c(c1)c(CCc1ccc(F)cc1)c(CCc1nc3ccccc3s1)n2CCc1nn[nH]n1
S = COc1ccc2sc(CCc3c(CCc4ccc(Cl)cc4)c4cc(C(=O)Nc5ccc(Cl)cc5)ccc4n3CCc3nn[nH]n3)nc2c1
## Input Ranking field: Ki; order: falling. Answer by naming the labels in the order asked.
## Output Q, S, R, P
(Q: 5700 nM, S: 2100 nM, R: 920 nM, P: 450 nM)

###

- Target Or Test System: β-catenin/Tcf protein-protein interaction (Homo sapiens)
- Construct: Wild-type β-catenin (residues 138-781) were cloned into a pET-28b vector; 6×histidine (C); made in house; host or cells: E. coli BL21 DE3
- Assay Explanation: FP competitive inhibition assay
- Type: binding
- Study Conditions: Assay 2, mean ± SD (n = 3), read-out: Ki ± SD, Assay 2
pKi: −log10 of the molar value.
Test Readout: pKi

# Molecule, Observed Result
rows = [
    ("O=C(O)c1ccc2c(c1)c(CCc1cccc(Cl)c1)cn2CCc1nn[nH]n1 [Compound 11]", 4.92),
]

I = O=C(O)c1ccc2c(c1)c(CCc1ccc3c(c1)OCCO3)c(-c1ccsc1)n2CCc1nn[nH]n1 [Compound 87]
II = COc1ccc2sc(CCc3c(CCc4ccc(Cl)cc4)c4cc(C(=O)NCc5ccsc5)ccc4n3CCc3nn[nH]n3)nc2c1 [Compound 59]
III = O=C(O)c1ccc2c(c1)c(CCC1CCCCC1)c(-c1ccsc1)n2CCc1nn[nH]n1 [Compound 85]
## Input Sort ascending by pKi. Answer by naming the labels in the order asked.
## Output III, II, I
(III: 5.09, II: 5.43, I: 5.89)

I = O=C(O)c1ccc2c(c1)c(CCc1ccc(Cl)cc1)c(CCc1nc3ccccc3s1)n2CCc1nn[nH]n1 [Compound 27]
II = Cc1ccc(CCc2c(-c3ccsc3)n(CCc3nn[nH]n3)c3ccc(C(=O)NCc4ccon4)cc23)cc1 [Compound 93]
## Input Lowest pKi? choose I or II Kindly state the label of the option you pick.
## Output II

1 = COc1ccc2sc(CCc3c(CCc4ccc(Cl)cc4)c4cc(C(=O)Nc5ccc(Cl)cc5)ccc4n3CCc3nn[nH]n3)nc2c1 [Compound 47]
2 = Cc1ccc(CCc2c(-c3csc(C(F)F)c3)n(CCc3nn[nH]n3)c3ccc(C(=O)NCc4ccon4)cc23)cc1 [Compound 94]
## Input Lowest pKi? choose 1 or 2 Kindly state the label of the option you pick.
## Output 1

I = Cc1ccc(CCc2c(CCc3nc4ccccc4s3)n(CCc3nn[nH]n3)c3ccc(C(=O)O)cc23)cc1 [Compound 28]
II = O=C(O)c1ccc2c(c1)c(CCc1ccc(-c3ccccc3)cc1)cn2CCc1nn[nH]n1 [Compound 18]
## Input Return label of the item with the larger pKi. Candidates: I , II . Kindly state the label of the option you pick.
## Output I

1 = Cc1ccc(CCc2c(-c3csc(C(F)F)c3)n(CCc3nn[nH]n3)c3ccc(C(=O)O)cc23)cc1 [Compound 80]
2 = COc1ccc2sc(CCc3c(CCc4ccc(Cl)cc4)c4cc(C(=O)NCc5ccccn5)ccc4n3CCc3nn[nH]n3)nc2c1 [Compound 55]
## Input Return label of the item with the larger pKi. Candidates: 1 , 2 . Kindly state the label of the option you pick.
## Output 1
